These measurements were taken from ChEMBL document CHEMBL1127688.

- Test system: Rattus norvegicus
- assay-summary: Blood pressure of the urethane-anesthetized normotensive Wistar rat was tested 30 min after inducing the compound on dose of 1.0 mg/kg
- Assay type: functional
Everything with BP lower than 1 mmHg is not fulfilled; everything else, including exactly 1 mmHg, is fulfilled.

State whether the measured BP reaches 1 mmHg, counting equality as reaching it, for CCCCCCCCC(=O)NCc1ccc(OCC(O)CNCCCCCC)c(OC)c1 (stereo unspecified) not fulfilled

State whether the measured BP reaches 1 mmHg, counting equality as reaching it, for CCCCCCCCC(=O)NCc1ccc(OCC(O)CNC2CCCCC2)c(OC)c1 (stereo unspecified) fulfilled

State whether the measured BP reaches 1 mmHg, counting equality as reaching it, for CCCCCCCCC(=O)NCc1ccc(OCC(O)CNC(C)C)c(OC)c1 (stereo unspecified) not fulfilled

State whether the measured BP reaches 1 mmHg, counting equality as reaching it, for CCCCCCCCC(=O)NCc1ccc(OCC(O)CNCCCCC)c(OC)c1 (stereo unspecified) fulfilled

State whether the measured BP reaches 1 mmHg, counting equality as reaching it, for CCCCCCCCC(=O)NCc1ccc(OCC(O)CNC2CC2)c(OC)c1 (stereo unspecified) fulfilled

State whether the measured BP reaches 1 mmHg, counting equality as reaching it, for CCCCCCCCC(=O)NCc1ccc(OCC(O)CNC(C)(C)C)c(OC)c1 (stereo unspecified) fulfilled

* * *

Please go through the items and note down their HR.
- Tested on: Rattus norvegicus
- assay-summary: Heart rate of the urethane-anesthetized normotensive Wistar rat was tested 10 min after inducing the compound on dose of 1.0 mg/kg
- Type: functional
Express your answer in beats min-1, writing the number without its unit.

// returns HR for CCCCCCCCC(=O)NCc1ccc(OCC(O)CNC2CC2)c(OC)c1 (configuration not stated) with Rattus norvegicus; value = -38.89

// returns HR for CCCCCCCCC(=O)NCc1ccc(OCC(O)CNC(C)C)c(OC)c1 (configuration not stated) with Rattus norvegicus; value = -40.78

// returns HR for CCCCCCCCC(=O)NCc1ccc(OCC(O)CNCC(C)C)c(OC)c1 (configuration not stated) with Rattus norvegicus; value = -35.25

// returns HR for CCCCCCCCC(=O)NCc1ccc(OCC(O)CNC(C)(C)C)c(OC)c1 (configuration not stated) with Rattus norvegicus; value = -37.75

// returns HR for CCCCCCCCC(=O)NCc1ccc(OCC(O)CNCCCCC)c(OC)c1 (configuration not stated) with Rattus norvegicus; value = -23.33

// returns HR for CC(C)NCC(O)COc1cccc2ccccc12 (configuration not stated) with Rattus norvegicus; value = -63.85

// returns HR for CCCCCCCCC(=O)NCc1ccc(OCC(O)CNC(C)CC)c(OC)c1 (configuration not stated) with Rattus norvegicus; value = -35.44

// returns HR for CCCCCCCCC(=O)NCc1ccc(OCC(O)CNCCCCCC)c(OC)c1 (configuration not stated) with Rattus norvegicus; value = -24.11

// returns HR for CCCCCCCCC(=O)NCc1ccc(OCC(O)CNCC)c(OC)c1 (configuration not stated) with Rattus norvegicus; value = -32.22

// returns HR for CCCCCCCCC(=O)NCc1ccc(OCC(O)CNC2CCCCC2)c(OC)c1 (configuration not stated) with Rattus norvegicus; value = -28.44

// returns HR for CCCCCCCCC(=O)NCc1ccc(OCC(O)CNC)c(OC)c1 (configuration not stated) with Rattus norvegicus; value = -17.33

// returns HR for CCCCCCCCC(=O)NCc1ccc(OCC(O)CNCCCC)c(OC)c1 (configuration not stated) with Rattus norvegicus; value = -33.78
